Recorded mAb-1 Binding to the Pre-complex of mAb-2 & hIL-33 by entry
# system under test: T1, human IL-33 (R&D Systems, #3625-IL-010/CF) (human, UniProt O95760 112-270)
# T1 construct: Commercial recombinant protein; also called hIL-33; interleukin-33
# T1 sequence (looked up): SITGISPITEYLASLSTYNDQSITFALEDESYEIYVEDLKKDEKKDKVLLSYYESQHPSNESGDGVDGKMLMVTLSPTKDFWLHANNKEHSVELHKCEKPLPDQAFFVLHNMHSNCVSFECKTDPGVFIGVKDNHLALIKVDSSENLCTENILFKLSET
# assay name: BLI; hIL-33 pre-mixed with mAb-2 H1M9565N
quantity kind: mAb-1 Binding to the Pre-complex of mAb-2 & hIL-33 (nm)

binder="H4H9660P (antibody, human IgG4, V domains shown, Human IgG4 Fc (H4H)) VH: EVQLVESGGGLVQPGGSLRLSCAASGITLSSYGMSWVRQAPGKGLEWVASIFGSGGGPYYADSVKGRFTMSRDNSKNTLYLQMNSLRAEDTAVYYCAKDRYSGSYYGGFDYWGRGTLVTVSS VL: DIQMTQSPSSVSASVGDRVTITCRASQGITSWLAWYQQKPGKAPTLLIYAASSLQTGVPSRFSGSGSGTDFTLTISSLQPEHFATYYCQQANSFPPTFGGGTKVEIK" unit_info=nm endpoint_value=0.53
binder="H4H9665P (antibody, human IgG4, V domains shown, Human IgG4 Fc (H4H)) VH: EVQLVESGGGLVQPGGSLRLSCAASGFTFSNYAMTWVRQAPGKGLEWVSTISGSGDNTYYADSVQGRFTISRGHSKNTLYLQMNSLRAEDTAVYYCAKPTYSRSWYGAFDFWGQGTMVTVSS VL: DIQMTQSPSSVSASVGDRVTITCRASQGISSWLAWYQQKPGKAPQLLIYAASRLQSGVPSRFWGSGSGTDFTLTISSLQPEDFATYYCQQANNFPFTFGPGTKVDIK" unit_info=nm endpoint_value=0.66
binder="H4H9670P (antibody, V domains shown, Human IgG4 Fc (H4H)) VH: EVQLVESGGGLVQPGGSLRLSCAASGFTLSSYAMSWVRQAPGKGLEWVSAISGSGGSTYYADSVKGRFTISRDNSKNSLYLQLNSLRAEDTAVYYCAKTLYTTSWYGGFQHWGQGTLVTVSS VL: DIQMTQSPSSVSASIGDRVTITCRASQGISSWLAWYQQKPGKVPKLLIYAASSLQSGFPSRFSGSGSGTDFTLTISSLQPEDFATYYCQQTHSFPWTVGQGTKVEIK" unit_info=nm endpoint_value=0.51

Origin of values: patent US20160362487A1
